molecular target: Fuc(a1-2)[GalNAc(a1-3)]Gal(b1-4)[Fuc(a1-3)]GlcNAc; test: glycan array binding signal (z-score within array); higher = stronger binding; settings: glycan notation: IUPAC condensed, linker removed
This is one part of a sample in which the strongest signals are shown more often than they occur.
# binarize glycan array binding signal (z-score): threshold 0.1 inclusive, high side Y, low side N

BINDER: AT3G09350(27) (Arabidopsis thaliana), Q84J81 (protein) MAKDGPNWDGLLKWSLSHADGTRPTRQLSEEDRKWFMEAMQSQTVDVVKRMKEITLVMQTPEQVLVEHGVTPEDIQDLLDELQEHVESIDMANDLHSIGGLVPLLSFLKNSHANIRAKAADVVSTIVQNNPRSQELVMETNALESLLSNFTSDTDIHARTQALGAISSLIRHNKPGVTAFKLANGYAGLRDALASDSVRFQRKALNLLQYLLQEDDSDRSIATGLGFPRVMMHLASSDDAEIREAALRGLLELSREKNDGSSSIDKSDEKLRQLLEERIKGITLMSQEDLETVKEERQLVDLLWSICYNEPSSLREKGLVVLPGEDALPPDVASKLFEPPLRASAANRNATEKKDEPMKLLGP
QUALITATIVE_LABEL: Y

Is the recorded value of glycan array binding signal (z-score) equal to or greater than 0.1 for this binder? Tim-4 (Mus musculus), Q6U7R4 (protein) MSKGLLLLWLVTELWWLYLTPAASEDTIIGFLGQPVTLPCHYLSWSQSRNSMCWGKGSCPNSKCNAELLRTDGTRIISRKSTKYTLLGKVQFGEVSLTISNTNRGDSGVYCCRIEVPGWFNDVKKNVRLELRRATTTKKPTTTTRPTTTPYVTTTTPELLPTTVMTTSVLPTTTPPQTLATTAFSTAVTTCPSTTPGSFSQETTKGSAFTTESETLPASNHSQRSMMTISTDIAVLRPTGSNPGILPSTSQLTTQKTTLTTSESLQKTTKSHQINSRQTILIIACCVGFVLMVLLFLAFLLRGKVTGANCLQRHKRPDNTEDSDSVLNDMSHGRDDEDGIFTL N

Is it the case that Tectonin 2 (Laccaria bicolor) (protein) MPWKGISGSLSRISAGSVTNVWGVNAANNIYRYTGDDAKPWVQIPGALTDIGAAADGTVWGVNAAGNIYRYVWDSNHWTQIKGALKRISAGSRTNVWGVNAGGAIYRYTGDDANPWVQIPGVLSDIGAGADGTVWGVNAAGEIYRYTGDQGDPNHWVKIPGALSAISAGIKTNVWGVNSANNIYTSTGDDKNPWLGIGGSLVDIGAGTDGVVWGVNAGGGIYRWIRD has glycan array binding signal (z-score) reaching or exceeding 0.1? N

I'd appreciate it if you could say whether Si Bti9 1b-V5-his (Solanum lycopersicum) (protein) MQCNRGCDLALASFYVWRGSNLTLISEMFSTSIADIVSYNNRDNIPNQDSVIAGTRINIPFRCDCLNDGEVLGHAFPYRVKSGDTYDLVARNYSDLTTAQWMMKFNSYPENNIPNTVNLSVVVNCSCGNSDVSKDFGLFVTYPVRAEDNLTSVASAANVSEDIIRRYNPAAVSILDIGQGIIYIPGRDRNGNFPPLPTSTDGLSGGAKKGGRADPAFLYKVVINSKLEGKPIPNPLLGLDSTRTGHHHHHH has glycan array binding signal (z-score) at least equal to 0.1. N

Could you please find out whether FBG3 (Homo sapiens), Q9H4M3 (protein) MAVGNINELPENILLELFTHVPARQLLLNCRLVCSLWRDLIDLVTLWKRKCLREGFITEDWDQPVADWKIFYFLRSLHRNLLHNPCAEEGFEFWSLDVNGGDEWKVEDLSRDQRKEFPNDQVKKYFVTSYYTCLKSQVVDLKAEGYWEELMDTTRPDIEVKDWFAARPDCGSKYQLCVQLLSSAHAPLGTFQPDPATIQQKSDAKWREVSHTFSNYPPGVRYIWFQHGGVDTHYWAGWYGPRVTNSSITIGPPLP has glycan array binding signal (z-score) that meets 0.1 or exceeds it? Y

Answer whether glycan array binding signal (z-score) of MLTim-4 (Mus musculus), Q6U7R4 (protein) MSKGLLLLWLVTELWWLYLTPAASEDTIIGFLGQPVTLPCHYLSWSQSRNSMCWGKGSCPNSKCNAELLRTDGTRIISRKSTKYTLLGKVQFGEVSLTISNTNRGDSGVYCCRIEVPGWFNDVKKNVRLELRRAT is greater than or equal to 0.1. Y
